Let's look at some compounds and their measured % Activation.
# target-or-test-system: ΔF508-CFTR (Homo sapiens, UniProt P13569, DEL508-508)
# Construct: host or cells: CFBE41o-, doxycycline-inducible
# Sequence (P13569 with tags, fused parts or gaps DEL508-508): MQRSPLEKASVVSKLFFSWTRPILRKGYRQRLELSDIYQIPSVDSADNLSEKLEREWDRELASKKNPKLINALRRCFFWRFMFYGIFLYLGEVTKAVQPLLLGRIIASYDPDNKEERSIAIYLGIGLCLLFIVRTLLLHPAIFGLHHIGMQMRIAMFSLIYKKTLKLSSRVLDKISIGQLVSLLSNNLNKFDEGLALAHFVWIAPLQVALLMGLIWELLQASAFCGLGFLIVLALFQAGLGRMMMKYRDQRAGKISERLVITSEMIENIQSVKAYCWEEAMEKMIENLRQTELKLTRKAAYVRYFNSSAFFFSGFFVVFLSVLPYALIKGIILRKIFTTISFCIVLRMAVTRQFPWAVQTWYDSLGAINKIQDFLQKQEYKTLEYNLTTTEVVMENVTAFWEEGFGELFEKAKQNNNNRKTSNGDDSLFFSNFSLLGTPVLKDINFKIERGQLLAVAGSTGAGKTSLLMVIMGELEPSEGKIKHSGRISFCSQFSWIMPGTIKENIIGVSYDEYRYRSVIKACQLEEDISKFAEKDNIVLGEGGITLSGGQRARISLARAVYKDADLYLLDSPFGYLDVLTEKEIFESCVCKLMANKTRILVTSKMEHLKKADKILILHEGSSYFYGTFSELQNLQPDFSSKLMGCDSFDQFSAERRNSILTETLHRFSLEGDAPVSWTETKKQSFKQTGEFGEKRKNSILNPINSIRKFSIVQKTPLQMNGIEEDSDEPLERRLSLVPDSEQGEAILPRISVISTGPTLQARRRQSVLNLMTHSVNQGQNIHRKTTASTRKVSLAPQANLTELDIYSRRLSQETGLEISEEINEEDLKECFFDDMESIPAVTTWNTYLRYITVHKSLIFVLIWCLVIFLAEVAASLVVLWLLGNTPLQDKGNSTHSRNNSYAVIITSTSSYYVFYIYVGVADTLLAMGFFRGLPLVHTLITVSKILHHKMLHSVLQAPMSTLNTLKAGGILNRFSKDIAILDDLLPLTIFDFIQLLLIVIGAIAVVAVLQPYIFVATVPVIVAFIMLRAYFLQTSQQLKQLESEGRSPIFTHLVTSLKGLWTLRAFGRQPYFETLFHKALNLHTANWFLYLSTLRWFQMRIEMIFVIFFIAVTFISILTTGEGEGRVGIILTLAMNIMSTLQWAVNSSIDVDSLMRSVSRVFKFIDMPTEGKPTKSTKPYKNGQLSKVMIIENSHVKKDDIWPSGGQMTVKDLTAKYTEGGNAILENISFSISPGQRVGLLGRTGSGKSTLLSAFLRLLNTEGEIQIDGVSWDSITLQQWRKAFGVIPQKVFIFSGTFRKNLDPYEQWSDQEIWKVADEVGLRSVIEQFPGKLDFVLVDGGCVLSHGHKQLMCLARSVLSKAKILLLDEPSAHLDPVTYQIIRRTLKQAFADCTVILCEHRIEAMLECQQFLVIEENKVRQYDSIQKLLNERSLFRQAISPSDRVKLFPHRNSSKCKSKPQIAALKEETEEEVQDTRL
# assay-protocol: CFTR cell surface levels using HRP-tagged ΔF508-CFTR expressing CFBE cells, in the presence of a co-corrector
# Format: cell-based
# test-settings: HRP-tagged ΔF508-CFTR expressing CFBE cells, in the presence of 3 μM co-corrector
Give just the numeric value; % need not be written.

Cc1ccc(-n2nc(C3CCC3)c3c(-c4ccc(N5CCOCC5)cc4)cc(C(=O)O)nc32)cc1F ... 360.63
CN(C)CC(CN(C)C)Oc1cc(C(=O)O)nc2c1c(C1CCC1)nn2-c1ccccc1 ... 175.15
O=C(O)c1cc(N2CCC3(C2)CC3(F)F)c2c(C3CCC3)nn(-c3ccccc3)c2n1 (centres unmarked) ... 299.25
CC1(F)CN(c2cc(C(=O)O)nc3c2c(C2CCC2)nn3-c2ccccc2)C1 ... 234.95
CC(C)(C)OC(=O)NC[C@H]1CCN(c2cc(C(=O)O)nc3c2c(C2CCC2)nn3-c2ccccc2)C1 ... 343.15

Incoming: Recall and state the measured % Activation for `Cc1nn(-c2ccccc2)c2nc(C(=O)O)cc(OCCN3CCCC3)c12` .
Outgoing: 138.5

Incoming: Recall and state the measured % Activation for `Cc1nn(-c2ccccc2)c2nc(C(=O)O)cc(OC[C@H](F)C3CCOCC3)c12` .
Outgoing: 297.8

Incoming: Recall and state the measured % Activation for CC(C)c1nn(-c2ccc(F)cc2)c2nc(C(=O)O)cc(N3CCN(CC4CCCN(C)C4)CC3)c12 (centres unmarked) .
Outgoing: 307.5

---

# target-or-test-system: ΔF508-CFTR (Homo sapiens, UniProt P13569, DEL508-508)
# Construct: host or cells: CFBE41o-, doxycycline-inducible
# assay-protocol: CFTR cell surface levels using HRP-tagged ΔF508-CFTR expressing CFBE cells, intrinsic corrector capacity
# Assay type: cell-based
# test-settings: HRP-tagged ΔF508-CFTR CFBE cells; compound alone (intrinsic corrector capacity); 20 hours at 33° C.; read-out: EC50
# if measured EC50 < 1000 nM: Y  # else: N

O=C(O)c1cc(N2CCC(N3CCOCC3)CC2)c2c(C3CCC3)nn(-c3ccc(OCCF)nc3)c2n1 ... N

Incoming: Dear reviewer, please state whether `CC(C)COC(=O)N1CCN(c2cc(C(=O)O)nc3c2c(C2CCC2)nn3-c2ccc(F)cc2)CC1` has EC50 strictly beneath 1000 nM.
Outgoing: Y

Incoming: Dear reviewer, please state whether `CC(C)Oc1nn(C2CCCCC2)c2nc(C(=O)O)cc(-c3ccc(CN4CC(N(C)C)C4)cc3)c12` has EC50 strictly beneath 1000 nM.
Outgoing: N

Incoming: Dear reviewer, please state whether `CC(F)(F)c1cccc(-n2nc(C3CCC3)c3c(N4CCC(N5CCOCC5)CC4)cc(C(=O)O)nc32)c1` has EC50 strictly beneath 1000 nM.
Outgoing: Y

Incoming: Dear reviewer, please state whether `O=C(O)c1cc(N2CCC(N3CCOCC3)CC2)c2c(C3CCC3)nn(-c3ccc(OC(F)F)cc3)c2n1` has EC50 strictly beneath 1000 nM.
Outgoing: Y

Incoming: Dear reviewer, please state whether `O=C(O)c1cc(N2CCC(N3CCOCC3)CC2)c2c(C3CCC3)nn(-c3ccnc(OC4CCOCC4)c3)c2n1` has EC50 strictly beneath 1000 nM.
Outgoing: Y

Incoming: Dear reviewer, please state whether `CN1CCC2(CC1)CCN(c1cc(C(=O)O)nc3c1c(C1CCC1)nn3-c1ccc(F)cc1)CC2` has EC50 strictly beneath 1000 nM.
Outgoing: N

---

# target-or-test-system: ΔF508-CFTR (Homo sapiens, UniProt P13569, DEL508-508)
# Construct: host or cells: CFBE41o-, doxycycline-inducible
# assay-protocol: CFTR cell surface levels using HRP-tagged ΔF508-CFTR expressing CFBE cells, in the presence of a co-corrector
# Assay type: cell-based
# test-settings: HRP-tagged ΔF508-CFTR expressing CFBE cells, in the presence of 3 μM co-corrector
# Excerpt: Measuring CFTR Cell Surface Levels Using HRP-Tagged AF508-CFTR Expressing CFBE Cells The HRP-tagged AF508-CFTR cell assay measures the expression of CFTR-ΔF508 at the plasma membrane. […] When HRP-tagged AF508-CFTR is present at the plasma membrane, the HRP enzyme activity can be measured. The amount of CFTR-ΔF508 that can be rescued to the plasma membrane is correlated with the amount of functional enzyme that can be measured. […]
observable: % Activation (%)
Give just the numeric value; % need not be written.

Example results:
CC(C)c1nn(-c2cccc(N(C)C)n2)c2nc(C(=O)O)cc(-c3ccc(N4CCOCC4)cc3)c12 ... 498.35
Cc1nn(-c2ccccc2)c2nc(C(=O)O)cc(-c3ccc(N4C[C@@H](O)[C@H](O)C4)cc3)c12 ... 262.7
CC(C)c1nn(C2CCN(CC#N)C2)c2nc(C(=O)O)cc(-c3ccc(N4CCOCC4)cc3)c12 (stereo not drawn) ... 121.5
CC(F)(F)c1cccc(-n2nc(C3CCC3)c3c(N4CCC(N5CCOCC5)CC4)cc(C(=O)O)nc32)c1 ... 587.95
COC1CN(CC2CCN(c3cc(C(=O)O)nc4c3c(C3CCC3)nn4-c3ccccc3)CC2)C1 ... 411.7
CS(=O)(=O)N1CCC(F)(COc2cc(C(=O)O)nc3c2c(C2CCC2)nn3-c2ccccc2)CC1 ... 398.15
CN(C)Cc1nn(-c2ccccc2)c2nc(C(=O)O)cc(-c3ccc(N4CCOCC4)cc3)c12 ... 148.9
COC[C@@H]1CCN(CC2CCN(c3cc(C(=O)O)nc4c3c(C3CCC3)nn4-c3ccccc3)CC2)C1 ... 439.7
N#CC1CCN(c2ccc(-c3cc(C(=O)O)nc4c3c(C3CCC3)nn4-c3ccnc(N4CCOCC4)c3)cn2)CC1 ... 369.5
CC(C)Oc1nn(C2CCCCC2)c2nc(C(=O)O)cc(-c3ccc(C(=O)N4CCN(C)CC4)cc3)c12 ... 255.65

Incoming: Recall and state the measured % Activation for `CC(C)c1nn(C2CCC(F)(F)CC2)c2nc(C(=O)O)cc(-c3ccc(N4CCOCC4)cc3)c12` .
Outgoing: 415.33

Incoming: Recall and state the measured % Activation for `Cc1nn(-c2ccccc2)c2nc(C(=O)O)cc(-c3ccc(N4CCN(CC#N)CC4)cc3)c12` .
Outgoing: 350.65

Incoming: Recall and state the measured % Activation for `CC(C)c1nn(-c2ccc(F)cc2)c2nc(C(=O)O)cc(N3CC(N4CCOCC4)C3)c12` .
Outgoing: 181.3

Incoming: Recall and state the measured % Activation for `CC(C)c1nn(-c2ccc(F)cc2)c2nc(C(=O)O)cc(N3CCC(C4CCN(C5COC5)CC4)CC3)c12` .
Outgoing: 530.9

Incoming: Recall and state the measured % Activation for `CC(C)c1nn(-c2cccc(N(C)C)c2)c2nc(C(=O)O)cc(N3CCC(C#N)CC3)c12` .
Outgoing: 454.57

---

# target-or-test-system: ΔF508-CFTR (Homo sapiens, UniProt P13569, DEL508-508)
# Construct: host or cells: CFBE41o-, doxycycline-inducible
# assay-protocol: CFTR cell surface levels using HRP-tagged ΔF508-CFTR expressing CFBE cells, intrinsic corrector capacity
# Type: cell-based
# test-settings: HRP-tagged ΔF508-CFTR CFBE41o- cells, compounds alone (intrinsic corrector capacity), 20 hours at 33° C.; read-out: EC50
observable: EC50 (nM)
Give just the numeric value; nM need not be written.

Example results:
Cc1cccc(-n2nc(C(C)C)c3c(N4CCC(S(C)(=O)=O)C4)cc(C(=O)O)nc32)c1 (centres unmarked) ... 3340
Cc1nn(-c2cccc(Br)c2)c2nc(C(=O)O)cc(-c3ccc(N4CCOCC4)cc3)c12 ... 783
CN(C)c1ccc(-c2cc(C(=O)O)nc3c2c(C(C)(C)C)nn3C2CCCCC2)cc1 ... 899
Cc1nn(-c2ccc(F)c(F)c2)c2nc(C(=O)O)cc(-c3ccc(N4CCOCC4)cc3)c12 ... 1110
CC(C)c1nn(-c2cccc(N3CCCC3)c2)c2nc(C(=O)O)cc(-c3cnc(N4CCC(C#N)CC4)nc3)c12 ... 1130
Cc1nn(-c2ccccc2)c2nc(C(=O)O)cc(-c3ccc(N(C)C4CCC4)cc3)c12 ... 1870

Now look at this one.
Incoming: Recall and state the measured EC50 for `COc1ccc(-c2cc(C(=O)O)nc3c2c(C)nn3C2CCCC2)cc1` .
Outgoing: 3340

---

# target-or-test-system: ΔF508-CFTR (Homo sapiens, UniProt P13569, DEL508-508)
# Construct: host or cells: CFBE41o-, doxycycline-inducible
# assay-protocol: CFTR cell surface levels using HRP-tagged ΔF508-CFTR expressing CFBE cells, in the presence of a co-corrector
# Format: cell-based
# test-settings: HRP-tagged ΔF508-CFTR expressing CFBE cells, in the presence of 3 μM co-corrector; read-out: EC50
observable: pEC50
Would you please state pEC50, meaning minus log10 of the concentration in mol/L, as a bare number?

CC(c1ccc(-c2cc(C(=O)O)nc3c2c(C2CCC2)nn3C2CCCCC2)cc1)N1CCOCC1 (centres unmarked) [compound 866] ... 6.82
CC(C)c1nn(-c2ccc(F)cc2)c2nc(C(=O)O)cc(N3CCN(CCC(=O)N4CCCN(C)CC4)CC3)c12 [compound 779] ... 5.30
Cc1cccc(-n2nc(C3CCC3)c3c(N4CCC(N5CCOCC5)CC4)cc(C(=O)O)nc32)c1 [compound 820] ... 6.91
CN1CCN(Cc2cc(C(=O)O)nc3c2c(C2CCC2)nn3-c2ccc(F)cc2)CC1 [compound 858] ... 5.50
O=C(O)c1cc(OCCCF)c2c(C3CCC3)nn(-c3ccccc3)c2n1 [compound 489] ... 6.11
N#CC1CCN(C2CCN(c3cc(C(=O)O)nc4c3c(C3CCC3)nn4-c3ccc(F)cc3)CC2)CC1 [compound 860] ... 6.38
Cc1nn(-c2ccccc2)c2nc(C(=O)O)cc(OCCN(CC(C)C)C3CC3)c12 [compound 385] ... 5.78

Now look at this one.
Incoming: Recall and state the measured pEC50 for O=C(O)c1cc(OCCC2OCCCO2)c2c(C3CCC3)nn(-c3ccccc3)c2n1 [compound 488] .
Outgoing: 6.34
